Source of measurements: ChEMBL document CHEMBL5316375

# measurement description: Oral bioavailability in Sprague-Dawley rat at 10 mg/kg
# Type: ADME, organism-based
# condition label: in vivo

- molecule: "C[C@H](NC(=O)c1c(Nc2cccc(C(F)(F)F)c2)c2ccccc2n1C)c1ccc(C(=O)O)cc1"
  bioavailability / %: 76.1

###

# target desc: UniProt:P43115
# Sequence (P43115 whole entry): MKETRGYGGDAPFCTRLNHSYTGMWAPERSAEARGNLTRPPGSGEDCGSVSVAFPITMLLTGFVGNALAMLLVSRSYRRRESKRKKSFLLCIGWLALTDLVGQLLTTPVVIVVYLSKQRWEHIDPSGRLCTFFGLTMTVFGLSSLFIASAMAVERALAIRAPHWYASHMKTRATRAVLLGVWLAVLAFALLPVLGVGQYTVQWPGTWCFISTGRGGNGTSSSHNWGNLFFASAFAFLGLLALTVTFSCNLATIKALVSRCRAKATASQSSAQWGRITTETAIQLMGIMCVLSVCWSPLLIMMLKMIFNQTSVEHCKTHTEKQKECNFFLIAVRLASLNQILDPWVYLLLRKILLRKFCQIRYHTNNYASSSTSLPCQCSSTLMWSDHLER
pKi: −log10 of the molar value.

- molecule: "C[C@H](NC(=O)c1c(Nc2cccc(C(F)(F)F)c2)c2ccccc2n1C)c1ccc(C(=O)O)cc1"
  pKi: "< 5.19"

###

# measurement description: AUC (0 to infinity) in Sprague-Dawley rat at 10 mg/kg, po
# Type: ADME, organism-based
# Set-up: dose 10 mg/kg, route po
# condition label: in vivo

- molecule: "C[C@H](NC(=O)c1c(Nc2cccc(C(F)(F)F)c2)c2ccccc2n1C)c1ccc(C(=O)O)cc1"
  AUC(0-inf) (ng·h/mL): 25700

###

# target desc: Prostaglandin E2 receptor EP4 subtype (Homo sapiens, UniProt P35408)
# Sequence (P35408 whole entry): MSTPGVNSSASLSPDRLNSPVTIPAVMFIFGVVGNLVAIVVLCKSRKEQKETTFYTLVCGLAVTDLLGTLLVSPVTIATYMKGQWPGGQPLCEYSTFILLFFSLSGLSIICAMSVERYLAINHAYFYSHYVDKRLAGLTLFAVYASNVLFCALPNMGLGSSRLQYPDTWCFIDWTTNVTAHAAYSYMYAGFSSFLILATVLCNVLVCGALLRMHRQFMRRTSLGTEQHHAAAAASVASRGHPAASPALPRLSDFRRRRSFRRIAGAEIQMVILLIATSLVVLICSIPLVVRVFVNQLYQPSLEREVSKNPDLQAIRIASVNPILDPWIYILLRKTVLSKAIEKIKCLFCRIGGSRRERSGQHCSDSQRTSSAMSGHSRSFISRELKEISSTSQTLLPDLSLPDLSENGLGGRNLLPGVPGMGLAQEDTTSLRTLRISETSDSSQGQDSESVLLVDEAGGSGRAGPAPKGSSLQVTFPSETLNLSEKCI
# measurement description: Antagonist activity at human EP4 receptor overexpressed in HEK293 cells assessed as inhibition of PGE2-induced cAMP formation preincubated for 15 mins followed by PGE addition and measured after 30 mins by Eu-cAMP tracer based assay
pIC50: −log10 of the molar value.

- molecule: "C[C@H](NC(=O)c1c(Nc2cccc(C(F)(F)F)c2)c2ccccc2n1C)c1ccc(C(N)=O)cc1"
  target desc: "Prostaglandin E2 receptor EP4 subtype (Homo sapiens, UniProt P35408)"
  pIC50: "< 5.00"

###

# measurement description: AUC (0 to infinity) in Sprague-Dawley rat at 1 mg/kg, iv
# Type: ADME, organism-based
# Parameters: dose 1 mg/kg, route iv
# condition label: in vivo

- molecule: "C[C@H](NC(=O)c1c(Nc2cccc(C(F)(F)F)c2)c2ccccc2n1C)c1ccc(C(=O)O)cc1"
  AUC(0-inf) (ng·h/mL): 3420

###

# measurement description: Cmax in Sprague-Dawley rat at 1 mg/kg, iv
# Assay type: ADME, organism-based
# Design: dose 1 mg/kg, route iv
# condition label: in vivo

- molecule: "C[C@H](NC(=O)c1c(Nc2cccc(C(F)(F)F)c2)c2ccccc2n1C)c1ccc(C(=O)O)cc1"
  Cmax, ng/mL: 4630

###

# measurement description: Half life in Sprague-Dawley rat at 1 mg/kg, iv
# Type: ADME, organism-based
# condition label: in vivo
property name: half-life (h)

- molecule: "C[C@H](NC(=O)c1c(Nc2cccc(C(F)(F)F)c2)c2ccccc2n1C)c1ccc(C(=O)O)cc1"
  property name: "half-life"
  measurement unit: "h"
  recorded measurement: 1.4

###

# measurement description: Microsomal stability in mouse liver microsomes assessed as half life at 1 uM measured for 60 mins by LC-MS/MS analysis
# Assay type: ADME, Microsome

- molecule: "C[C@H](NC(=O)c1c(Nc2cccc(C(F)(F)F)c2)c2ccccc2n1C)c1ccc(C(=O)O)cc1"
  half-life at 1 µM: "1.64 h"

###

# measurement description: AUC (0 to t) in Sprague-Dawley rat at 1 mg/kg, iv
# Assay type: ADME, organism-based
# Parameters: dose 1 mg/kg, route iv
# condition label: in vivo

- molecule: "C[C@H](NC(=O)c1c(Nc2cccc(C(F)(F)F)c2)c2ccccc2n1C)c1ccc(C(=O)O)cc1"
  AUC(0-t) (ng·h/mL): 3380
